assay: Single-dose pharmacokinetics in cancer patients; format: in vivo, human; conditions: human, plasma; single oral dose 16 mg/person (n = 4)
observed property: AUC(0-inf)

input: Returns the measured AUC(0-inf) for the input compound. Input: "COc1cc2c(Oc3ccc4[nH]c(C)cc4c3F)ccnc2cc1OCC1(N)CC1"
output: 1580 ng·h/mL

---

experiment: Single-dose pharmacokinetics in cancer patients; assay type: in vivo, human; conditions: human, plasma; single oral dose 5-16 mg/person, range
observed property: Tmax

input: Query (compound): "COc1cc2c(Oc3ccc4[nH]c(C)cc4c3F)ccnc2cc1OCC1(N)CC1" ; field requested: Tmax
output: 4 to 11 h
